# Tested on: L1210
# Protocol Notes: Inhibition of cell growth of murine L-1210 cells
# Type: functional, cell-based
# Assay Context: Mus musculus
Readout Kind: IC50 (µM)

| Compound | Readout Kind | Numeric Value |
| --- | --- | --- |
| Cc1c(CNc2ccc(C(=O)NC(CCC(=O)O)C(=O)O)cc2)cnc2nc(N)nc(N)c12 (stereo not drawn) | IC50 | 0.00011 |
| CN(Cc1cnc2nc(N)nc(N)c2n1)c1ccc(C(=O)N[C@@H](CCC(=O)O)C(=O)O)cc1 [METHOTREXATE] | IC50 | 0.0045 |
| Cc1nc2nc(N)nc(N)c2c(-c2ccccc2)c1CNc1ccc(C(=O)NC(CCC(=O)O)C(=O)O)cc1 (stereo not drawn) | IC50 | 18.9 |
| Cc1nc2nc(N)nc(N)c2c(C)c1CNc1ccc(C(=O)NC(CCC(=O)O)C(=O)O)cc1 (stereo not drawn) | IC50 | 0.125 |
| Nc1nc(N)c2cc(CNc3ccc(C(=O)NC(CCC(=O)O)C(=O)O)cc3)cnc2n1 (stereo not drawn) | IC50 | 0.02 |
| Cc1c(CNc2ccc(C(=O)NC(CCC(=O)O)C(=O)O)cc2)c(-c2ccccc2)nc2nc(N)nc(N)c12 (stereo not drawn) | IC50 | 18.9 |

[P] Nc1nc(N)c2cc(CNc3ccc(C(=O)NC(CCC(=O)O)C(=O)O)cc3)c(-c3ccccc3)nc2n1 (stereo not drawn)
[Q] Cc1nc2nc(N)nc(N)c2cc1CNc1ccc(C(=O)NC(CCC(=O)O)C(=O)O)cc1 (stereo not drawn)
Task: Determine, for P and Q , which has the greater value of IC50. I would appreciate it if you answered with the label of your choice.
Output: P
(P: 16.9 µM, Q: 0.08 µM)

These measurements were taken from ChEMBL document CHEMBL1124134.
